B1: Homeobox protein SIX6, residues 134 to 184; numbered along this chain, O95475 (parent)
chain: CFKERTRHLLREWYLQDPYPNPSKKRELAQATGLTPTQVGNWFKNRRQRDR

Variants of: B1
PROTOCOL NOTES: abundance fitness (aPCA) (normalised: wild type 0, dead -1); higher = more abundant; growth selection in yeast, the domain comes from the species named
TEST PARAMETERS: Homo sapiens
Would you mind sorting the entries by abundance fitness according to these classes? bottom end (below -0.6), midrange (-0.6 to below -0.2), top end (-0.2 or more)

INSERT INTO assay_data (seq_text, class_assignment) VALUES
  ('CFKERTRHLLREWYLQDPYPNPSKKRELAQATGLTPTQVGNWFKARRQRDR [N45A]', 'midrange'),
  ('CFKERTRHLLREWYLQDPYPNPSCKRELAQATGLTPTQVGNWFKNRRQRDR [K24C]', 'midrange'),
  ('CFKERTRHLLREWYLQDPYPNPSKKRELAQATGETPTQVGNWFKNRRQRDR [L34E]', 'bottom end'),
  ('CFKERTRHLLREWYLQDPYPNPSMKRELAQATGLTPTQVGNWFKNRRQRDR [K24M]', 'top end'),
  ('CFKERTRHLLREWYLQDPYPNTSKKRELAQATGLTPTQVGNWFKNRRQRDR [P22T]', 'top end');

# input Kindly state the category for this variant: CFKERTRHLLREWYLQDPYPNPSKPRELAQATGLTPTQVGNWFKNRRQRDR [K25P]
# output bottom end

# input Which category fits this record: CFKERTRHLLREWYLQDPYPNPSKKRELAQATGLTPTQYGNWFKNRRQRDR [V39Y]
# output bottom end

# input Assign a category based on measured abundance fitness for CFKERTRHLLREWYLQDPYPNPSKKRKLAQATGLTPTQVGNWFKNRRQRDR [E27K] and give only the class name.
# output bottom end

# input // bin(item) where item = CFKERTRHLLREWYLQDPYPNPSKKREYAQATGLTPTQVGNWFKNRRQRDR [L28Y]
# output top end

# input Which class holds CFKERTRHLLREWYLQDPYPNPSKKRELAQAEGLTPTQVGNWFKNRRQRDR [T32E] ?
# output midrange

# input Hey, which category is CFKERTRHLLREWYLQDPYPNPSKKRELAKATGLTPTQVGNWFKNRRQRDR [Q30K] in, do you know?
# output top end

# input Looking at CFKERTRHLLREWYLQDPYPNPSKKRELAQACGLTPTQVGNWFKNRRQRDR [T32C] , which class would you pick?
# output top end

# input Please classify: CFKERTRHLLREWYLQDPYPNPSKKRELAQGTGLTPTQVGNWFKNRRQRDR [A31G]
# output bottom end

# input Input CFKERTRHLLREWYLQDPYPNPSKKRELAQMTGLTPTQVGNWFKNRRQRDR [A31M] ; output its category
# output top end

Data credit: the Human Domainome abundance scans (Beltran et al. 2025)
